Target: T1, 14-3-3σ-ΔC (C-terminally truncated human 14-3-3σ) (human, UniProt P31947 1-231)
T1 chain: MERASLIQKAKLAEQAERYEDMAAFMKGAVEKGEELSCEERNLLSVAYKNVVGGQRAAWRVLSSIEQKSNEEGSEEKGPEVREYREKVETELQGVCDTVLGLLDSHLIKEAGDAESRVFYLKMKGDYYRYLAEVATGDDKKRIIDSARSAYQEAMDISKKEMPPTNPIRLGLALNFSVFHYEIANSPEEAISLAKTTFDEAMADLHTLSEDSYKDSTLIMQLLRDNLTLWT
Experiment: MST
Where no end group is shown, it is not given here. [ ]: non-standard residue; d: D form. pT = C[C@@H](OP(=O)(O)O)[C@H](N)C(=O)O; pS = N[C@@H](COP(=O)(O)O)C(=O)O
OUTCOME MEASURE: Kd (µM)

binder="RERPT[pS]PAPHR [Sirt6^pS338 phospho-endecamer peptide]" op== observed_value=24
binder="GRRSI[pS]FSVGA (also: phosphoserine at 103 (place in chain not given here)) [Sirt3^pS103 phospho-endecamer peptide]" op== observed_value=10
binder="KGRSV[pS]AADLS [Sirt7 pS136]" op== observed_value=49
binder="KTRCT[pS]CGVVA (cysteine pairing not given here) [Sirt5 pS168]" op=> observed_value=329
binder="KRERP[pT]SPAPH [Sirt6^pT336 phospho-endecamer peptide]" op== observed_value=12
